experiment: log P by HPLC (EEC Directive 79/831 Annex V.A8); assay type: physicochemical; settings: [b] LC-MS, acidic range, pH 2.7, 0.1% aqueous formic acid and acetonitrile
Marks after values point to notes of the source that are not given here.
Parameter: log P. Scope: all listed entries.

| compound | property | result |
| --- | --- | --- |
| O=C(Cn1nc(C(F)F)cc1C(F)F)N1CCC(c2cccc(C(=O)N3CCOc4ccccc43)n2)CC1 | log P | 2.98 |
| O=C(OCc1ccccc1OC(F)(F)F)c1cccc(C2CCN(C(=O)Cn3nc(C(F)F)cc3C(F)F)CC2)n1 [Example 7] | log P | 3.98^[b] |
| Cc1cc(C(F)(F)F)nn1CC(=O)N1CCC(c2cccc(C(=O)NCc3ccc(F)cc3F)n2)CC1 | log P | 3.36^[b]; 3.36^[c] |

Given the compound C=CCCCCOC(=O)c1cccc(C2CCN(C(=O)Cn3nc(C(F)(F)F)cc3C)CC2)n1 , what is its reported log P?
3.86^[b]

// log P lookup, key: Cc1cc(C(F)(F)F)nn1CC(=O)N1CCC(c2cccc(C(=O)NC3CCc4ccccc43)n2)CC1 (racemic)
3.56^[b]; 3.56^[c]

Report log P for Cc1cc(C(F)(F)F)nn1CC(=O)N1CCC(c2cccc(C(=O)OCC#Cc3ccccc3Cl)n2)CC1 please.
4.03^[b]

Value source: patent US8604040B2
